ASSAYED_TARGET: human adenosine A2A receptor (Homo sapiens, UniProt P29274)
Construct: expressed in transfected cells; host or cells: CHO cells, Semliki Forest virus expression system; membrane preparation
Sequence (P29274 whole entry): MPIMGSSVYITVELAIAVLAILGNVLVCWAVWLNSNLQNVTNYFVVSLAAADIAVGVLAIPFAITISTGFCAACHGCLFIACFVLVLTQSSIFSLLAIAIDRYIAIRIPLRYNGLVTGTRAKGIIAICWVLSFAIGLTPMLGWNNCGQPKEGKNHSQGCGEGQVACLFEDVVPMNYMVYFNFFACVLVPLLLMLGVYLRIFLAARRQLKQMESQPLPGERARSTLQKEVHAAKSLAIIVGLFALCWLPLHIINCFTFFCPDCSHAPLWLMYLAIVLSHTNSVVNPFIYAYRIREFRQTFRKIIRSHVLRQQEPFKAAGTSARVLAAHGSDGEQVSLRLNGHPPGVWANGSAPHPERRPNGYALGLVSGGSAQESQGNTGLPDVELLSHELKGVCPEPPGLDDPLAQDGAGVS
ASSAY_PROTOCOL: Human adenosine A2A receptor [3H]-SCH-58261 binding assay
CONDITIONS_USED: calculated ratio of the affinity to the HA1 receptor to the HA2a receptor
MEASUREMENT_LABEL: selectivity (A1/A2a)

> print(dat)
                                   compound                            assayed.target     measurement.label  readout.value
1  Nc1cc(C(=O)NCc2ccccc2)cc2nc(-c3ccoc3)nn12 [Example 224]  human adenosine A2A receptor (Homo sapiens, UniProt P29274)  selectivity (A1/A2a)            4.5
2  CCCCNC(=O)c1cc(N)n2nc(-c3ccccn3)nc2c1 [Example 49]  human adenosine A2A receptor (Homo sapiens, UniProt P29274)  selectivity (A1/A2a)            7.1
3  CN(CC1CC1)C(=O)c1cc(N)n2nc(-c3ccc(Cl)o3)nc2c1 [Example 247]  human adenosine A2A receptor (Homo sapiens, UniProt P29274)  selectivity (A1/A2a)           17.6
4  COc1ccc(-c2nc3cc(C(=O)NCc4ccccc4Cl)cc(N)n3n2)s1 [Example 56]  human adenosine A2A receptor (Homo sapiens, UniProt P29274)  selectivity (A1/A2a)            1.1
5  CC(C)N(Cc1ccccc1)C(=O)c1cc(N)n2nc(-c3ccccc3O)nc2c1 [Example 121]  human adenosine A2A receptor (Homo sapiens, UniProt P29274)  selectivity (A1/A2a)           12.0

(A) CCCN(CCC)C(=O)c1cc(N)n2nc(-c3ccc(Br)o3)nc2c1 [Example 338]
(B) CCCCCCNC(=O)c1cc(N)n2nc(-c3ccc(OC)s3)nc2c1 [Example 63]
// query Could you tell me which of these two has the smaller selectivity (A1/A2a) figure? First: A Second: B Mark your selection by writing its label.
// result B
(B: 1.4, A: 64.4)

(a) COc1ccccc1CNC(=O)c1cc(N)n2nc(-c3ccccc3)nc2c1 [Example 220]
(b) COc1ccc(-c2nc3cc(C(=O)NCCc4ccccc4Cl)cc(N)n3n2)s1 [Example 78]
// query Quick check, higher selectivity (A1/A2a) between a and b ? Mark your selection by writing its label.
// result a

(1) Cc1ccsc1-c1nc2cc(C(=O)NCc3ccccc3Cl)cc(N)n2n1 [Example 191]
(2) Nc1cc(C(=O)NCc2ccccc2Cl)cc2nc(-c3ccc[nH]3)nn12 [Example 83]
// query Quick check, higher selectivity (A1/A2a) between 1 and 2 ? Mark your selection by writing its label.
// result 2

(P) CCN(CC)C(=O)c1cc(N)n2nc(-c3ccc(OC)s3)nc2c1 [Example 68]
(Q) Nc1cc(C(=O)NCc2ccc(Cl)cc2)cc2nc(-c3nccs3)nn12 [Example 205]
(R) Nc1cc(C(=O)N(Cc2ccccc2)Cc2ccccc2)cc2nc(-c3ccc(Br)o3)nn12 [Example 313]
(S) COc1cc(CNC(=O)c2cc(N)n3nc(-c4cc(Br)co4)nc3c2)cc(OC)c1OC [Example 177]
(T) Nc1cc(C(=O)N2CCC3CCCCC3C2)cc2nc(-c3ccc(Br)o3)nn12 (centres unmarked) [Example 350]
// query Please order the records by their reported selectivity (A1/A2a), lowest number first. Note for the reader: the ranking is given by listing the labels in the order requested.
// result S, Q, P, R, T
(S: 1.3, Q: 1.9, P: 4.2, R: 14.8, T: 28.8)

(P) Cc1ccsc1-c1nc2cc(C(=O)N3CCCC3)cc(N)n2n1 [Example 188]
(Q) CCN(CC)C(=O)c1cc(N)n2nc(-c3ccoc3)nc2c1 [Example 153]
(R) Nc1cc(C(=O)N(CCc2ccccc2)Cc2ccccc2)cc2nc(-c3cccnc3)nn12 [Example 90]
(S) Nc1cc(C(=O)N2CCCCCCC2)cc2nc(-c3ccc(Br)o3)nn12 [Example 339]
(T) CCN(CC)CCN(CC)C(=O)c1cc(N)n2nc(-c3ccc(Br)o3)nc2c1 [Example 309]
// query Please order the records by their reported selectivity (A1/A2a), lowest number first. Note for the reader: the ranking is given by listing the labels in the order requested.
// result R, P, T, Q, S

(A) CCN(C(=O)c1cc(N)n2nc(-c3ccc(C)s3)nc2c1)C(C)C [Example 194]
(B) CCN(Cc1ccccc1)C(=O)c1cc(N)n2nc(-c3nccs3)nc2c1 [Example 323]
// query Could you tell me which of these two has the smaller selectivity (A1/A2a) figure? First: A Second: B Mark your selection by writing its label.
// result A
(A: 4.4, B: 13.6)

(1) CCCCN(Cc1ccccc1)C(=O)c1cc(N)n2nc(-c3ccc(OC)s3)nc2c1 [Example 73]
(2) Nc1cc(C(=O)N2CCCC2)cc2nc(-c3ccoc3)nn12 [Example 99]
// query Quick check, higher selectivity (A1/A2a) between 1 and 2 ? Mark your selection by writing its label.
// result 2

(A) CCN(Cc1ccccc1)C(=O)c1cc(N)n2nc(-c3cccnc3)nc2c1 [Example 88]
(B) Cc1ccc(-c2nc3cc(C(=O)N(C)Cc4ccccc4)cc(N)n3n2)o1 [Example 140]
// query Quick check, higher selectivity (A1/A2a) between A and B ? Mark your selection by writing its label.
// result B
(B: 14.7, A: 3.6)

(a) Nc1cc(C(=O)N2CCSC2)cc2nc(-c3nccs3)nn12 [Example 289]
(b) Nc1cc(C(=O)N2CC=C(c3ccccc3)CC2)cc2nc(-c3ccc(Br)o3)nn12 [Example 312]
// query Quick check, higher selectivity (A1/A2a) between a and b ? Mark your selection by writing its label.
// result a

----------
ASSAYED_TARGET: HA1 adenosine receptor (Homo sapiens, UniProt P30542)
Sequence (P30542 whole entry): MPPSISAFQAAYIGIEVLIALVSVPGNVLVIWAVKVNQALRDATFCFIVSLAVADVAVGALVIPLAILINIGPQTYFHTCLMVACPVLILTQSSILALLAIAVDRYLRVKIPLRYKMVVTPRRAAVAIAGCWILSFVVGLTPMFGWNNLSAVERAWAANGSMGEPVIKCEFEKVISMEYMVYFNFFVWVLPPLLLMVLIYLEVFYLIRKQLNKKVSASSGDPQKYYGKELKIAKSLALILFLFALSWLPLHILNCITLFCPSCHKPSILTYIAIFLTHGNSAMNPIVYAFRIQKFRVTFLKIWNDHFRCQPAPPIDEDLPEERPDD
ASSAY_PROTOCOL: Human adenosine A1 receptor affinity (Ki hA1)
Type: binding
CONDITIONS_USED: affinity to human adenosine A1 receptor
MEASUREMENT_LABEL: Ki (nM)

Guide cases for Ki, answers given:
> print(dat)
                                   compound  readout.value
1  CC1C=CC(C)N1C(=O)c1cc(N)n2nc(-c3ccc(Br)o3)nc2c1 (centres unmarked)            251
2  Cc1ccsc1-c1nc2cc(C(=O)N3CCCCC3)cc(N)n2n1            763
3    CCNC(=O)c1cc(N)n2nc(-c3ccc(Br)o3)nc2c1            355
4  COc1ccc(-c2nc3cc(C(=O)N(Cc4ccccc4)Cc4ccccc4)cc(N)n3n2)s1            129
5  Nc1cc(C(=O)NCc2ccc(F)cc2)cc2nc(-c3ccoc3)nn12            736
6  CC(C)N(Cc1ccccc1)C(=O)c1cc(N)n2nc(-c3cc(Br)co3)nc2c1           73.6
7  CC1CCCN(C(=O)c2cc(N)n3nc(-c4nccs4)nc3c2)C1 (centres unmarked)           2190
8  CCN(CCc1ccccn1)C(=O)c1cc(N)n2nc(-c3ccc(Br)o3)nc2c1            144

(a) CC(C)N(Cc1ccccc1)C(=O)c1cc(N)n2nc(-c3cccn3C)nc2c1
(b) CCN(CC)C(=O)c1cc(N)n2nc(-c3ccccn3)nc2c1
(c) CCCCNC(=O)c1cc(N)n2nc(-c3ccc(OC)s3)nc2c1
(d) Nc1cc(C(=O)N2CCCCC2)cc2nc(-c3cc(Br)co3)nn12
// query List these items ordered by Ki, big to small. Note for the reader: the ranking is given by listing the labels in the order requested.
// result b, a, d, c

(1) Cn1cccc1-c1nc2cc(C(=O)NCc3ccccc3Br)cc(N)n2n1
(2) CCN(C(=O)c1cc(N)n2nc(-c3ccoc3)nc2c1)C(C)C
(3) CCCCN(Cc1ccccc1)C(=O)c1cc(N)n2nc(-c3ccc[nH]3)nc2c1
(4) CN(C)CCN(C)C(=O)c1cc(N)n2nc(-c3ccc(Br)o3)nc2c1
(5) CN(C)C(=O)c1cc(N)n2nc(-c3ccc(Br)o3)nc2c1
// query List these items ordered by Ki, big to small. Note for the reader: the ranking is given by listing the labels in the order requested.
// result 3, 2, 4, 5, 1
(3: 4960 nM, 2: 2260 nM, 4: 1060 nM, 5: 528 nM, 1: 270 nM)

(A) C[C@@H]1CCC[C@H](C)N1C(=O)c1cc(N)n2nc(-c3nccs3)nc2c1
(B) C=CCN(C(=O)c1cc(N)n2nc(-c3ccc(Br)o3)nc2c1)C1CCCCC1
(C) Nc1cc(C(=O)NCc2ccccc2)cc2nc(-c3ccoc3)nn12
// query List these items ordered by Ki, big to small. Note for the reader: the ranking is given by listing the labels in the order requested.
// result A, C, B

(A) COc1ccc(-c2nc3cc(C(=O)NCc4ccccc4)cc(N)n3n2)s1
(B) COc1ccc(CNC(=O)c2cc(N)n3nc(-c4nccs4)nc3c2)cc1
(C) Nc1cc(C(=O)N2CCc3ccccc3C2)cc2nc(-c3ccc(Br)o3)nn12
(D) CCCCCN(C)C(=O)c1cc(N)n2nc(-c3nccs3)nc2c1
(E) COc1ccc(-c2nc3cc(C(=O)NCc4ccccc4OC)cc(N)n3n2)s1
// query Please order the records by their reported Ki, lowest number first. Note for the reader: the ranking is given by listing the labels in the order requested.
// result E, A, C, B, D

(A) CCCCN(Cc1ccccc1)C(=O)c1cc(N)n2nc(-c3ccccn3)nc2c1
(B) C=CCN(C(=O)c1cc(N)n2nc(-c3ccc(Br)o3)nc2c1)C1CCCC1
(C) Nc1cc(C(=O)N2CCCC2)cc2nc(-c3nccs3)nn12
(D) Nc1cc(C(=O)N2CCCCCCC2)cc2nc(-c3nccs3)nn12
(E) CN(C(=O)c1cc(N)n2nc(-c3ccc(Cl)o3)nc2c1)C1CCCCC1
// query List these items ordered by Ki, big to small. Note for the reader: the ranking is given by listing the labels in the order requested.
// result C, D, A, E, B
(C: 3100 nM, D: 844 nM, A: 199 nM, E: 124 nM, B: 71.7 nM)

(P) COc1cc(CNC(=O)c2cc(N)n3nc(-c4ccc(C)s4)nc3c2)cc(OC)c1OC
(Q) Cc1ccc(-c2nc3cc(C(=O)N4CCCC4)cc(N)n3n2)s1
// query Could you tell me which of these two has the smaller Ki figure? First: P Second: Q Mark your selection by writing its label.
// result Q
